- targetOrSystem: Concanavalin-A (Canavalia ensiformis)
- method: ConA small-molecule binders, primary screen, artefact control for SMM control protein annotation, biochemical, small-molecule microarray, Alexa647 label, 635 nm (AID 1127);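 note: z combines 667 nm emission intensity with signal-to-noise across three replicate slides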
- settings: ConA-A647 binding fluorescence, higher = more signal
endpointName: composite z-score
Output spec: single numeric token, no unit.

As a guide, the following entries are already answered.
{"columns": ["querySmiles", "numericResult"],
 "data": [
  ["Cc1ccc(F)cc1S(=O)(=O)N[C@@H]1CCN(Cc2ccc(CC(C)C)cc2)C1", -1.47],
  ["O=C1C[C@@H](O)[C@@H](O)[C@@H]2[C@@H]3C(=O)N(c4ccc(F)cc4F)C(=O)[C@@H]3CC[C@@H]12", -0.397],
  ["CC(C)=NOCc1cccc(-c2cc(-c3ccccc3)no2)c1", 1.02]
]}

Result for COc1cccc([C@@H]2Oc3ccc(Br)cc3C(=O)[C@H]2O)c1 , tested on Concanavalin-A (Canavalia ensiformis), composite z-score: 1.11

Result for CO[C@@H]1COC(=O)CCC[C@@H](C)[C@H](OC)COC(=O)CCC[C@H]1C , tested on Concanavalin-A (Canavalia ensiformis), composite z-score: -0.302

----------
composite z-score: recorded values
- method: small-molecule microarray binders of probe aNog, primary screen, biochemical, biotinylated probe, 635/667 nm fluorescence (AID 1115);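 note: probe is biotinylated aNog protein used at 0.15 µg/mL for 1 h at 4 C; z-score combines 667 nm fluorescence of each spot with its signal to noise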
- settings: higher = more signal
Output spec: single numeric token, no unit.

As a guide, the following entries are already answered.
{"columns": ["compound", "composite z-score"],
 "data": [
  ["CC(C)[C@@H](OCc1ccccc1)[C@H](C)C=NO[C@H](C)c1cn([C@H](CO)Cc2ccccc2)nn1", -0.216],
  ["CCOc1ccc(N2C(=O)/C(=C/C=C/c3ccccc3OC)S(=O)(=O)C2c2cccc([N+](=O)[O-])c2)cc1 (stereo not drawn)", 0.0373],
  ["O=C1CCCC2OC12C(O)CCc1ccccc1 (stereo not drawn)", -0.175]
]}

In plain terms, COCCOC(=O)N1C(=O)[C@@]2(c3cc(C#CC4(O)CCCCCC4)ccc31)[C@H](C(=O)N1CCN(c3ncccn3)CC1)[C@H]1C(=O)O[C@H](c3ccccc3)[C@H](c3ccccc3)N1[C@@H]2c1ccc(OCCO)cc1 has a documented composite z-score of 0.42

In plain terms, CC(C)OC(=O)C=C1C[C@@H](c2ccc(C#N)cc2)O[C@@H](c2ccc(C#N)cc2)O1 has a documented composite z-score of 0.229

In plain terms, C[C@@H]1CCC2C(=O)N(Cc3ccccc3)C[C@@H](O)CN2[C@H]1c1ccc(Br)cc1 (stereo partly drawn) has a documented composite z-score of -0.0675

In plain terms, CC(=O)OC[C@H]1O[C@H](C#CCCCc2ccccc2)C=C[C@@H]1OC(C)=O has a documented composite z-score of -0.493

In plain terms, CO[C@@H]1COC(=O)CC=C[C@@H](C)[C@@H]2C=C[C@H](O)[C@@H](COC(=O)CCC[C@H]1C)O2 has a documented composite z-score of -0.0755

----------
z-score: recorded values
- method: adipocyte viability effects, profiling panel, cell-based, 3T3-L1 adipocytes, calcein-AM fluorescence, 48 h, basal (AID 1163); note: test concentration not given here
- settings: 3T3-L1 adipocytes viability, higher = more signal
Output spec: single numeric token, no unit.

As a guide, the following entries are already answered.
{"columns": ["molecule", "z-score"],
 "data": [
  ["CC(=O)OC[C@H]1O[C@@H](ON=C(C)CCN2CCc3nc(-c4ccccc4)c(-c4ccccc4)cc3C2)[C@H](OC(C)=O)[C@@H](OC(C)=O)[C@@H]1OC(C)=O", 0.565],
  ["CO[C@@H]1COC(=O)CC=C[C@@H](C)[C@@H]2C=C[C@H](O)[C@@H](COC(=O)CCC[C@H]1C)O2", -0.717],
  ["COc1cccc([C@H]2Oc3ccc(OC)cc3C(=NO[C@H](C)c3cn([C@@H]4COC[C@H]4O)nn3)[C@@H]2O)c1", 0.67],
  ["COc1ccc([Si](C)(C)[C@H]2[C@H](CC(=O)N3CCC[C@H]3CO)O[C@@]3(C(=O)N(Cc4cccc(N5C(=O)COc6ccccc65)c4)c4ccccc43)[C@@H]2C)cc1", 0.198]
]}

In plain terms, COc1cccc([C@@H]2Oc3ccc(Br)cc3C(=O)[C@H]2O)c1 has a documented z-score of -0.397

In plain terms, Cc1ccc(F)cc1S(=O)(=O)N[C@@H]1CCN(Cc2ccc(CC(C)C)cc2)C1 has a documented z-score of -0.537

In plain terms, C=CCC(OC(C)=O)[C@@H]1[C@@H](N(Cc2cc3ccccc3o2)C(=O)Cc2ccc(F)cc2)c2cc(OCCCO)ccc2N1C(=O)Cc1ccc(OC)cc1 (some centres not stated) has a documented z-score of 0.569
